Tested on: 422866-222-R5-J1-PDC complex spheroids viability;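 also: spheroids exposed to compounds for 7 days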
measurement_protocol: Anticancer human tumor 422866-222-R5-J1-PDC patient-derived pancreatic adenocarcinoma cell line growth inhibition [RAS]
condition_set: second compound 0.1 µM; first compound 0.01 µM; hits give low values
param class (str): category from viability, T/C; see ranges low bracket: < 20%; middle bracket: ≥ 20% and < 70%; high bracket: ≥ 70%

Use these answered entries as a reference point.
C=CC(=O)N1CCN(c2nc(OCC3CCCN3C)nc3c(F)c(-c4nc(N)cc(C)c4C(F)(F)F)c(Cl)cc23)C(C)C1 (stereo unspecified) + C#Cc1c(F)ccc2cc(O)cc(-c3ncc4c(N5CC6CCC(C5)N6)nc(OCC56CCCN5CC(F)C6)nc4c3F)c12 | middle bracket
CCN1CCN(Cc2ccc(Nc3ncc(F)c(-c4cc(F)c5nc(C)n(C(C)C)c5c4)n3)nc2)CC1 + C=CC(=O)N1CCN(c2nc(OCC3CCCN3C)nc3c(F)c(-c4nc(N)cc(C)c4C(F)(F)F)c(Cl)cc23)C(C)C1 | middle bracket
O=C(c1ccc(F)c(F)c1Nc1ccc(I)cc1F)N1CC(O)([C@@H]2CCCCN2)C1 + C=CC(=O)N1CCN(c2nc(OCC3CCCN3C)nc3c(F)c(-c4nc(N)cc(C)c4C(F)(F)F)c(Cl)cc23)C(C)C1 | low bracket
C=CC(=O)Nc1cc(Nc2nccc(-c3cn(C)c4ccccc34)n2)c(OC)cc1N(C)CCN(C)C + C=CC(=O)N1CCN(c2nc(OCC3CCCN3C)nc3c(F)c(-c4nc(N)cc(C)c4C(F)(F)F)c(Cl)cc23)C(C)C1 | middle bracket
CCN1CCN(Cc2ccc(Nc3ncc(F)c(-c4cc(F)c5nc(C)n(C(C)C)c5c4)n3)nc2)CC1 + C#Cc1c(F)ccc2cc(O)cc(-c3ncc4c(N5CC6CCC(C5)N6)nc(OCC56CCCN5CC(F)C6)nc4c3F)c12 | high bracket

q: Please indicate the class for CC(C)n1nc(-c2ccc3oc(N)nc3c2)c2c(N)ncnc21 + C#Cc1c(F)ccc2cc(O)cc(-c3ncc4c(N5CC6CCC(C5)N6)nc(OCC56CCCN5CC(F)C6)nc4c3F)c12 based on its viability, T/C.
a: middle bracket

q: Same thing, different molecule: Nc1ccn(C2OC(CO)C(O)C2(F)F)c(=O)n1 (stereo unspecified) + C=CC(=O)N1CCN(c2nc(OCC3CCCN3C)nc3c(F)c(-c4nc(N)cc(C)c4C(F)(F)F)c(Cl)cc23)C(C)C1
a: middle bracket

q: Same thing, different molecule: CC(C)n1nc(-c2ccc3oc(N)nc3c2)c2c(N)ncnc21 + C=CC(=O)N1CCN(c2nc(OCC3CCCN3C)nc3c(F)c(-c4nc(N)cc(C)c4C(F)(F)F)c(Cl)cc23)C(C)C1
a: low bracket

q: Same thing, different molecule: Nc1ccn(C2OC(CO)C(O)C2(F)F)c(=O)n1 (stereo unspecified) + C#Cc1c(F)ccc2cc(O)cc(-c3ncc4c(N5CC6CCC(C5)N6)nc(OCC56CCCN5CC(F)C6)nc4c3F)c12
a: middle bracket

q: Same thing, different molecule: C=CC(=O)Nc1cc(Nc2nccc(-c3cn(C)c4ccccc34)n2)c(OC)cc1N(C)CCN(C)C + C#Cc1c(F)ccc2cc(O)cc(-c3ncc4c(N5CC6CCC(C5)N6)nc(OCC56CCCN5CC(F)C6)nc4c3F)c12
a: high bracket
